tested on: RAW-Dual; assay: NF-kB SEAP reporter activity, fold change vs agonist alone; cytotoxicity flag (confluency mask): not cytotoxic; higher = enhanced NF-kB activity; conditions: agonist: ODN 1826 (TLR9) 0.5 ug/mL
In all, about 2,900 compounds were measured (“NF-kB SEAP reporter activity, fold change vs agonist alone”: median about 0.99, highest 2% from about 2.6 on). The sample holds the highest values, similar compounds and a random draw of the others, so the mix is not that of the screen.
Reported metric: NF-kB SEAP reporter activity
Respond numerically, and do not add a unit to the figure.

Reference set (2 entries):
Compound	Reported metric	Recorded measurement
CCCC(NC(=O)C1C2CCCC2CN1C(=O)C(NC(=O)C(NC(=O)c1cnccn1)C1CCCCC1)C(C)(C)C)C(=O)C(=O)NC1CC1 (stereo not drawn) (library stock concentration (final ~1000-fold dilution): 10 mM)	NF-kB SEAP reporter activity	0.887
O=c1oc2cc(O)ccc2c2ccc(O)cc12 (library stock concentration (final ~1000-fold dilution): 10 mM)	NF-kB SEAP reporter activity	0.575

Now, please, on to the next compound.
Entry under test: C=C(C)C1CCC2(C(=O)O)CCC3(C)C(CCC4C5(C)CCC(O)C(C)(C)C5CCC43C)C12 (stereo not drawn) (library stock concentration (final ~1000-fold dilution): 10 mM) . Its NF-kB SEAP reporter activity was 0.913

---

Below: a set of entries, each annotated with reported NF-kB SEAP reporter activity.
test system: RAW-Dual; test: NF-kB SEAP reporter activity, fold change vs agonist alone; cytotoxicity flag (confluency mask): not cytotoxic; higher = enhanced NF-kB activity; conditions: agonist: Pam3CSK4 (TLR2/1) 0.1 ug/mL
Over roughly 2,900 compounds, “NF-kB SEAP reporter activity, fold change vs agonist alone” has its median near 0.99; the highest 2% begin near 2.6. The sample holds the highest values, similar compounds and a random draw of the others, so the mix is not that of the screen.
Respond numerically, and do not add a unit to the figure.

Reference set (4 entries):
Molecule	Recorded measurement
CCCC(=O)Nc1cccc(NC(=O)c2ccccc2Br)c1 (library stock concentration (final ~1000-fold dilution): 10 mM)	1.15
CC1COC(Nc2ccc3ncnc(Nc4ccc(OCc5nccs5)c(Cl)c4)c3c2)=N1 (stereo not given) (library stock concentration (final ~1000-fold dilution): 10 mM)	0.911
CS(=O)(=O)CCNCc1ccc(-c2ccc3ncnc(Nc4ccc(OCc5cccc(F)c5)c(Cl)c4)c3c2)o1.Cc1ccc(S(=O)(=O)O)cc1.Cc1ccc(S(=O)(=O)O)cc1 (library stock concentration (final ~1000-fold dilution): 10 mM)	1.14
O=C(CCCCCCC(=O)NO)NO (library stock concentration (final ~1000-fold dilution): 10 mM)	1.21

Now, please, on to the next molecule.
Entry under test: CS(=O)(=O)CCNCc1ccc(-c2ccc3ncnc(Nc4ccc(OCc5cccc(F)c5)c(Cl)c4)c3c2)o1.Cc1ccc(S(=O)(=O)O)cc1.Cc1ccc(S(=O)(=O)O)cc1.O (library stock concentration (final ~1000-fold dilution): 10 mM) . Its NF-kB SEAP reporter activity was 0.786

---

test system: RAW-Dual; assay: NF-kB SEAP reporter activity, fold change vs agonist alone; cytotoxicity flag (confluency mask): not cytotoxic; higher = enhanced NF-kB activity; details: agonist: Pam3CSK4 (TLR2/1) 0.1 ug/mL
In all, about 2,900 compounds were measured (“NF-kB SEAP reporter activity, fold change vs agonist alone”: median about 0.99, highest 2% from about 2.6 on). The sample holds the highest values, similar compounds and a random draw of the others, so the mix is not that of the screen.
Reported metric: NF-kB SEAP reporter activity

Compound	Recorded measurement
CC(C)C(CO)Nc1nc(Nc2cccc(Cl)c2)c2ncn(C(C)C)c2n1 (stereo not drawn) (library stock concentration (final ~1000-fold dilution): 10 mM)	0.679
CCC(Nc1ncnc2[nH]cnc12)c1nc2cccc(F)c2c(=O)n1-c1ccccc1 (stereo not drawn) (library stock concentration (final ~1000-fold dilution): 10 mM)	0.843

Now, please, on to the next compound.
Entry under test: CC(C)n1cnc2c(NCCc3ccc(O)cc3)nc(-c3csc4ccccc34)nc21 (library stock concentration (final ~1000-fold dilution): 10 mM) . Its NF-kB SEAP reporter activity was 0.662

---

Below: a set of entries, each annotated with reported NF-kB SEAP reporter activity.
system: RAW-Dual; test: NF-kB SEAP reporter activity, fold change vs agonist alone; cytotoxicity flag (confluency mask): not cytotoxic; higher = enhanced NF-kB activity; settings: agonist: ODN 1826 (TLR9) 0.5 ug/mL
Over roughly 2,900 compounds, “NF-kB SEAP reporter activity, fold change vs agonist alone” has its median near 0.99; the highest 2% begin near 2.6. Shown is part of a subset that was picked to be rich in the highest values.

Entry under test: CCc1cc2c(cc1N1CCC(N3CCOCC3)CC1)C(C)(C)c1[nH]c3cc(C#N)ccc3c1C2=O.Cl (library stock concentration (final ~1000-fold dilution): 2 mM) . Its NF-kB SEAP reporter activity was 1.17

Entry under test: Cc1cccc(C)c1OCC(=O)NC(Cc1ccccc1)C(O)CC(Cc1ccccc1)NC(=O)C(C(C)C)N1CCCNC1=O (stereo not drawn) (library stock concentration (final ~1000-fold dilution): 10 mM) . Its NF-kB SEAP reporter activity was 2.09

Entry under test: CC1(C)CCC2(C(=O)O)CCC3(C)C(=CCC4C5(C)CCC(=O)C(C)(C)C5CCC43C)C2C1 (stereo not drawn) (library stock concentration (final ~1000-fold dilution): 10 mM) . Its NF-kB SEAP reporter activity was 0.824

---

system: RAW-Dual; experiment: NF-kB SEAP reporter activity, fold change vs agonist alone; cytotoxicity flag (confluency mask): not cytotoxic; higher = enhanced NF-kB activity; settings: agonist: LPS (TLR4) 0.1 ug/mL
Whole data set: some 2,900 compounds, median “NF-kB SEAP reporter activity, fold change vs agonist alone” near 0.99, cut for the highest 2% near 2.6. The sample as a whole holds a higher share of the highest values than the screen did.
Reported metric: NF-kB SEAP reporter activity
Respond numerically, and do not add a unit to the figure.

Compound	Reported metric	Recorded measurement
Cc1n[nH]c2ncc(C(=O)N3CCCC3c3ccc(Cl)cc3)cc12 (stereo not drawn) (library stock concentration (final ~1000-fold dilution): 10 mM)	NF-kB SEAP reporter activity	2.51
COc1ccc(C2CC(=O)c3c(O)cc(O)cc3O2)cc1O (stereo not drawn) (library stock concentration (final ~1000-fold dilution): 10 mM)	NF-kB SEAP reporter activity	1.12

Now, please, on to the next compound.
Entry under test: COC(=O)NC(C(=O)N1CCCC1c1ncc(-c2ccc(-c3ccc(-c4cnc(C5CCCN5C(=O)C(NC(=O)OC)C(C)C)[nH]4)cc3)cc2)[nH]1)C(C)C (stereo not drawn) (library stock concentration (final ~1000-fold dilution): 10 mM) . Its NF-kB SEAP reporter activity was 1.88

---

Below: a set of entries, each annotated with reported NF-kB SEAP reporter activity.
tested on: RAW-Dual; experiment: NF-kB SEAP reporter activity, fold change vs agonist alone; higher = enhanced NF-kB activity; settings: library stock concentration (final ~1000-fold dilution): 10 mM; cytotoxicity flag (confluency mask): not cytotoxic; agonist: Imiquimod (TLR7) […]
The full ranking holds about 2,900 compounds; the median of “NF-kB SEAP reporter activity, fold change vs agonist alone” is about 0.99, and the highest 2% start at about 2.6. The entries come from a sample that favours the highest values as a whole.
Respond numerically, and do not add a unit to the figure.

Reference set (4 entries):
Molecule	NF-kB SEAP reporter activity
COc1cc2nccc(Oc3ccc(NC(=O)C4(C(=O)Nc5ccc(F)cc5)CC4)cc3)c2cc1OC.O=C(O)CC(O)C(=O)O	0.796
C[N+]1(C)CCC[C@H]1C(=O)O	0.952
CCOC(=O)NC1CCC2C(C1)CC1C(=O)OC(C)C1C2/C=C/c1ccc(-c2cccc(F)c2)cn1 (stereo not given)	0.145
Cc1cc2c(C(=O)NCC(C)c3ccccc3)c(O)c(O)cc2c(O)c1-c1c(C)cc2c(C(=O)NCC(C)c3ccccc3)c(O)c(O)cc2c1O (stereo not given)	1.84

Now, please, on to the next molecule.
Hey, RAW-Dual data for O=C(Nc1ccc(O)c(C(=O)O)c1)c1cccc(NC(=O)c2ccco2)c1 : NF-kB SEAP reporter activity came out at 0.942

---

system: RAW-Dual; test: NF-kB SEAP reporter activity, fold change vs agonist alone; higher = enhanced NF-kB activity; conditions: library stock concentration (final ~1000-fold dilution): 10 mM; cytotoxicity flag (confluency mask): not cytotoxic; agonist: MPLA (TLR4) […]
The full ranking holds about 2,900 compounds; the median of “NF-kB SEAP reporter activity, fold change vs agonist alone” is about 0.99, and the highest 2% start at about 2.6. The sample holds the highest values, similar compounds and a random draw of the others, so the mix is not that of the screen.
Rule: condition met for NF-kB SEAP reporter activity not less than 1, condition not met for anything less.

Molecule	Answer label
CC(Nc1ncnc2[nH]cnc12)c1cc2cccc(Cl)c2c(=O)n1-c1ccccc1 (stereo not drawn)	condition not met
CCNC(=O)[C@]12CCC(C)(C)C[C@H]1[C@H]1C(=O)C=C3[C@@]4(C)C=C(C#N)C(=O)C(C)(C)[C@@H]4CC[C@@]3(C)[C@]1(C)CC2	condition not met
CN(c1ncccc1CNc1nc(Nc2ccc3c(c2)CC(=O)N3)ncc1C(F)(F)F)S(C)(=O)=O.O=S(=O)(O)c1ccccc1	condition not met
Cl.Cl.N/C(=N\OCC(O)CN1CCCCC1)c1cccnc1 (stereo not drawn)	condition met

With those in mind, consider the next molecule.
Is NF-kB SEAP reporter activity for Cl.Cl.Fc1ccc(C(c2ccc(F)cc2)N2CCN(C/C=C/c3ccccc3)CC2)cc1 at or above 1? condition met
